Readout: melting point

> print(dat)
                                    molecule            val
 1  CCN(CC)CC1CCCCN1CC(C)(C)NC(=O)N1c2ccccc2C(=O)Nc2cccnc21 (centres undefined)  160 to 162 °C
 2  CC1(C)OC(=C(C#N)C#N)C(C#N)=C1/C=C/c1ccc([N+](=O)[O-])cc1         281 °C
 3                   O=C1Nc2cccnc2Nc2ncccc21       > 340 °C
 4  O=c1cc2c(nn1-c1ccc(Cl)cc1)-c1cc(F)ccc1S(=O)CC2 (centres undefined)  233 to 235 °C
 5  CCOC(=O)[C@](CC(=O)OC1CC(C)CCC1C(C)C)(NC(=O)OC(C)(C)C)C(N)=O (some centres undefined)         176 °C
 6  O=Cc1ccc(-c2c(-c3nn[nH]n3)[nH]c3ccccc23)cc1  210 to 212 °C
 7  O=C(O)COc1ccc2cc(CNC(=O)c3cnn(-c4ccc(Cl)cc4)c3C(F)(F)F)ccc2c1Br         245 °C
 8  CC(=O)Nc1cccc(CNC(=O)c2[nH]c3ccc(Cl)cc3c2S(=O)(=O)c2ccccc2)c1  249 to 250 °C
 9  Cc1c[nH]c(-c2ccc(OCC(O)CNC3CC3)cc2)n1 (centres undefined)  150 to 154 °C
10   O=C(O)c1ccc(-c2coc(-c3ccc(Cl)cc3)n2)cc1  288 to 289 °C
11  ON=C(c1ccccc1)c1ccc(OCCCCOc2ccc(C(=NO)c3ccccc3)cc2)cc1  154 to 156 °C
12                 Cc1ccc(CSc2ccc(Cl)cc2)cc1    72 to 73 °C
13  CN(CC1=NC(=S)N=N1)C(COCc1cc(C(F)(F)F)cc(C(F)(F)F)c1)C(c1ccccc1)c1ccccc1 (centres undefined)  192 to 194 °C
14  CCOC(=O)C(C)(C)Oc1ccc(-c2ccc(CCNC(=O)c3ccc(F)cc3)cc2)cc1         135 °C
15  CN1C(=O)CC[C@]2(C)c3ccc(-c4ccc(S(C)(=O)=O)cc4)cc3CC[C@@H]12         229 °C
16  CCOP(=O)(OCC)c1ccc2c(c1)[C@@H](n1ccccc1=O)[C@H](O)C(C)(C)O2 (relative stereo)         130 °C
17         O=[N+]([O-])c1cccnc1NCc1ccc(F)cc1          76 °C
18  Cc1ccnc2c1C(=O)CC(c1ccco1)C2 (centres undefined)    70 to 71 °C
19  NC(Cc1c[nH]c2cc(Cl)cc(Cl)c12)C(=O)OCCC(=O)OCc1ccccc1 (centres undefined)  151 to 153 °C

----------
Readout: melting point

> print(dat)
                                    molecule        readout            val
 1  CCOC(=O)C(C)Oc1ccc(Sc2ccc(C(F)(F)F)cc2[N+](=O)[O-])cc1 (stereo not given)  melting point    63 to 64 °C
 2  CC(C)(C)c1ccc(OC(Cc2ccc(OCCNC(=O)c3ccc(-c4ccccn4)cc3)cc2)C(=O)O)cc1 (stereo not given)  melting point    94 to 96 °C
 3  CC(=O)Nc1nc(-c2ccccc2)c(CCOC(C)=O)c2ncnn12  melting point    79 to 80 °C
 4  CC(C)Cn1c(CN2C(=O)c3ccccc3C2=O)c(-c2ccc(Cl)cc2)c2cc(OCc3ccccc3)ccc2c1=O  melting point  182 to 183 °C
 5  N#CC[C@@H]1CC[C@@H]2CN(c3noc4ccccc34)CCN2C1 (relative stereo)  melting point  184 to 186 °C
 6  CCCCc1ccc(-c2ccc(CCc3ccc(F)cc3)cc2)c(F)c1  melting point          35 °C
 7             CN(C)c1ccc(-c2nc3cccnc3o2)cc1  melting point  168 to 170 °C
 8  O=[N+]([O-])c1cc(Cl)ccc1NCCSSCCNc1ccc(Cl)cc1[N+](=O)[O-]  melting point  187 to 188 °C
 9  COc1ccc2ccc(S(=O)(=O)N[C@@H](CCCNC(=N)N)C(=O)N3CCC(c4ccccc4)CC3C(=O)O)cc2c1 (stereo not given in full)  melting point  183 to 186 °C
10                  CCOC(=O)C(C)(C)Cc1cccnc1  melting point    64 to 66 °C
11  O=C(Nc1cc(C(F)(F)F)ccc1N1CCOCC1)c1ccncc1  melting point  172 to 173 °C
12     O=C(O)CCC(=O)c1c(-c2ccccc2)cc2ccccn12  melting point  131 to 133 °C
13  CC(C)OC(=O)c1cc(-n2c(=O)n3n(c2=S)COCC3)c(F)cc1Cl  melting point    67 to 69 °C
14              CC1(C)CCC(C)(C)c2cc(CO)ccc21  melting point    74 to 75 °C
15  CN(C)C(=O)N(NC(=O)C(F)(F)F)c1ccc(Cl)cc1Cl  melting point  137 to 138 °C
16  O=Cc1ccc(OC2OC(CO)C(O)C(O)C2O)cc1 (stereo not given)  melting point         177 °C
17  CCN1CCCC1CNC(=O)c1cc(S(N)(=O)=O)c(OC)c2c1OCCO2 (stereo not given)  melting point  110 to 115 °C
18                         CCCC(=O)C=CC(=O)O  melting point  100 to 102 °C
19  O=C(Nc1ccc(Cl)cc1)Nc1c(C(O)(C(F)(F)F)C(F)(F)F)ccc2ccccc12  melting point  210 to 212 °C
20  COCCC1(C(=O)N[C@@H](Cc2ccc(NC(=O)c3cc(C#N)ccc3Cl)cc2)C(=O)O)CCCC1  melting point  169 to 172 °C
21                    c1ccc2c3c(cnc2c1)OCCN3  melting point  175 to 176 °C
22     COc1cc(C=CCN2CCc3nc(N)sc3CC2)cc(OC)c1  melting point  114 to 119 °C
23  COc1ccc(-c2nnc3cc(-c4ccccc4)c(OCc4ncn(C)n4)nn23)cc1  melting point  205 to 206 °C
24  COc1ccccc1N1CCN(C(=O)CCCN2CC=C(c3c[nH]c4cc(Cl)ccc34)CC2)CC1  melting point    93 to 95 °C
25  CCOC(=O)CNC(=O)Nc1ccc2oc3c(OC)ccc(C(=O)Nc4c(Cl)cncc4Cl)c3c2c1  melting point       > 250 °C
26  CC(C)(C)OC(=O)N1CCN(Cc2ccc3c(c2)-c2[nH]nc(-c4ccsc4)c2C3)CC1  melting point  218 to 220 °C
27  Fc1ccc2c(c1)nc(/C=C/c1ccccc1)n2-c1ccccn1  melting point  134 to 135 °C
28                 CS(=O)(=O)CS(=O)(=O)OCCCl  melting point    60 to 62 °C
29  CCCc1c(OCCCCC(=O)NCCCCc2cccnc2)ccc(C(C)=O)c1O  melting point    76 to 78 °C
30  COc1ccnc(C(=O)c2[nH]c3cc(Cl)ccc3c2NC(C)=O)c1  melting point  207 to 208 °C
31  COCC1COC(Cn2cncn2)(c2ccc(Cl)cc2Cl)O1 (stereo not given)  melting point    64 to 74 °C
32  COc1ccc(N(c2ccc(-c3ccc(N(c4ccc(OC)cc4)c4cccc(C(F)(F)F)c4)cc3)cc2)c2cccc(C(F)(F)F)c2)cc1  melting point         134 °C
33  COc1ccc2cc3c(=O)n(C)cc(C(=O)NCCN(C)C)c3nc2c1  melting point  213 to 215 °C
34  COC(=O)C=Cc1ccc(OCC2CN(c3ccccc3)C(=O)O2)cc1 (stereo not given)  melting point  179 to 181 °C
35        Nc1cccc(S(=O)(=O)NC(=O)C(F)(F)F)c1  melting point  106 to 108 °C
36  COc1ccc(N2CCOCC2)c2sc(NC(=O)N3CC4CCC3CO4)nc12 (stereo not given)  melting point  164 to 170 °C
37  COc1ccc2c(c1)C=C(CN1CCC3(CC1)C(=O)NCN3c1ccccc1)CC2  melting point  184 to 186 °C
38                  COC(=O)c1ccc(CBr)c(OC)c1  melting point    87 to 90 °C
39  CC1(C)CCC2=C(O1)c1ccccc1C1(OCC(CO)O1)C2=O (stereo not given)  melting point    44 to 46 °C
40         Cc1cc2c(-c3cccc(Cl)c3)nc(Cl)nc2s1  melting point  118 to 120 °C

Values from a melting point compilation (Tetko et al.; mined from patent text by program, amines drawn as free bases though some values may be those of a salt)
